experiment-notes: Log P by HPLC on reversed phase columns (EEC directive 79/831 Annex V.A8)
Format: physicochemical
condition-notes: reversed phase HPLC columns, LC-UV, acidic range, 0.1% formic acid in water and acetonitrile as eluent; read-out: LogP [a]
Experimental: Measurement of Log P values was performed according to EEC directive 79/831 Annex V.A8 by HPLC (High Performance Liquid Chromatography) on reversed phase columns with the following methods: [^a] Log P value is determined by measurement of LC-UV, in an acidic range, with 0.1% formic acid in water and acetonitrile as eluent (linear gradient from 10% acetonitrile to 95% acetonitrile). [^b] […]
reported-endpoint: chromatographic logP
Keep the answer to the number alone.

>>> value_measured("C#CCOc1cc(F)cc(F)c1Nc1c(-c2ccc(OCC=C)cc2F)c(C)nn1C [Example I-22]")
3.3

Next molecule, please.
[Q] Give its chromatographic logP value. Item: C#CCOc1cc(F)cc(F)c1Nc1c(-c2ccc(F)cc2Cl)c(C)nn1C [Example I-01]
[A] 3.26

* * *

// LogP [c] lookup, one value per entry
experiment-notes: Log P by HPLC on reversed phase columns (EEC directive 79/831 Annex V.A8)
Assay type: physicochemical

>>> value_measured("C=CCOc1cc(F)c(Nc2c(-c3ccc(F)cc3Cl)c(C)nn2C)cc1F")
"3.60^[c]"
>>> value_measured("C#CCOc1ccc(Nc2c(-c3ccc(Cl)cc3Cl)c(C)nn2C)c(Cl)c1")
"4.00^[c]"
>>> value_measured("C#CCOc1ccc(F)c(Nc2c(-c3ccc(F)cc3Cl)c(C)nn2C)c1")
"3.20^[c]"
>>> value_measured("C#CCOc1cc(F)c(Nc2c(-c3ccc(F)cc3Cl)c(C)nn2C)cc1F")
"3.20^[c]"
>>> value_measured("C=CCOc1ccc(Nc2c(-c3ccc(F)cc3Cl)c(C)nn2C)cc1F")
"3.50^[c]"
>>> value_measured("C#CCOc1cc(F)c(Nc2c(-c3ccc(Cl)cc3Cl)c(C)nn2C)cc1F")
"3.60^[c]"
>>> value_measured("C=CCOc1cc(F)c(Nc2c(-c3ccc(F)cc3Cl)c(C)nn2C)c(F)c1")
"3.40^[c]"
>>> value_measured("C=CCOc1ccc(F)c(Nc2c(-c3ccc(F)cc3Cl)c(C)nn2C)c1")
"3.70^[c]"

[Q] Give its LogP [c] value. Item: C#CCOc1cc(F)c(Nc2c(-c3ccc(F)cc3Cl)c(C)nn2C)c(F)c1
[A] 2.90^[c]

[Q] Okay, and C#CCOc1ccc(Nc2c(-c3ccc(F)cc3Cl)c(C)nn2C)cc1F ?
[A] 3.10^[c]

* * *

experiment-notes: Log P by HPLC on reversed phase columns (EEC directive 79/831 Annex V.A8)
Format: physicochemical
condition-notes: reversed phase HPLC columns, LC-UV, acidic range, 0.1% phosphoric acid and acetonitrile as eluent; read-out: LogP [c]
Procedure: Measurement of Log P values was performed according to EEC directive 79/831 Annex V.A8 by HPLC (High Performance Liquid Chromatography) on reversed phase columns with the following methods: [^a] Log P value is determined by measurement of LC-UV, in an acidic range, with 0.1% formic acid in water and acetonitrile as eluent (linear gradient from 10% acetonitrile to 95% acetonitrile). [^b] […]
reported-endpoint: chromatographic logP
Keep the answer to the number alone.

[Q] Give its chromatographic logP value. Item: C#CCOc1cc(F)cc(F)c1Nc1c(-c2ccc(F)cc2Cl)c(C)nn1C
[A] 3.1

Values compiled from patent US10246420B2.
